- system: BTK (Homo sapiens (Human))
- Sequence (Q06187 whole entry): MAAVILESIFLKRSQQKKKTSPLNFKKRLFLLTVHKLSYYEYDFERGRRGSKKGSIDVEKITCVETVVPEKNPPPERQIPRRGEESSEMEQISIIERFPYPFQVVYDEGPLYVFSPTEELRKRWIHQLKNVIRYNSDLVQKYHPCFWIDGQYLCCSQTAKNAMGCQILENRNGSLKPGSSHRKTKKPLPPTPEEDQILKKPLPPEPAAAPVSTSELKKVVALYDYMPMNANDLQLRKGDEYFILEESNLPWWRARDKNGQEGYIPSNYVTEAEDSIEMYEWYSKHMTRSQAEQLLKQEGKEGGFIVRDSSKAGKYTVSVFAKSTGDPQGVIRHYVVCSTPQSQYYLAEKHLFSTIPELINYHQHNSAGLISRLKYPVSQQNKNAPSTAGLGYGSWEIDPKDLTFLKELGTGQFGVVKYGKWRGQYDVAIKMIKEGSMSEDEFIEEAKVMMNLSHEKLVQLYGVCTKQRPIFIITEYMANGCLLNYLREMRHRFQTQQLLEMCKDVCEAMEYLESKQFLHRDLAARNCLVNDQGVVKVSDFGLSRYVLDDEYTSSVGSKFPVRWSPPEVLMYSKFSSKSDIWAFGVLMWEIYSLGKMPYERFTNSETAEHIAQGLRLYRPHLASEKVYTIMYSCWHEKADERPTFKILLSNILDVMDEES
- test.details: BTK enzymatic activity assay (Caliper-based kinase assay)
- experimental.context: human recombinant BTK 0.5 nM, ATP 16 μM, 3 h room temperature
pIC50: −log10 of the molar value.
measured.endpoint: pIC50

{"compound": "N#CC(=CC1CC[S+]([O-])CC1)C(=O)N1CCC[C@@H](n2c(=O)n(-c3ccc(Oc4ccccc4)cc3)c3c(N)nccc32)C1 (stereo partly shown)", "pIC50": 8.28}
{"compound": "CC(C)(C)C=C(C#N)C(=O)N1CCC[C@H]1Cn1c(=O)n(-c2ccc(Oc3ccccc3)cc2)c2c(N)nccc21", "pIC50": 8.18}
{"compound": "Cc1cc(-n2c(=O)n([C@@H]3CCCN(C(=O)C(C#N)=CC(C)(C)N4CCN(C5COC5)CC4)C3)c3ccnc(N)c32)ccc1Oc1ccccc1", "pIC50": 8.32}
{"compound": "CC(C)(C=C(C#N)C(=O)N1CCC[C@@H](n2c(=O)n(-c3ccc(Oc4ccccc4)cc3)c3c(N)nccc32)C1)N1[C@@H]2CC[C@H]1COC2", "pIC50": 7.60}
